Cited source for all entries: paper PMC9082524

The entries below are paired with their reported Kd.
TARGET_UNDER_TEST: Human galectin-1 (Homo sapiens)
PROTOCOL_SUMMARY: Competitive fluorescence polarization, galectin-1 with high-affinity fluorescent probe 25
Assay type: binding
Design: made in house
REPORTED_CONDITIONS: galectin-1 50 nM, probe 25 1 nM, 100 nM BSA, rt; average ± SEM
Field format: number, assumed nM, no unit text.

Worked examples follow.
STRUCTURE_AS_SMILES: OC[C@H]1O[C@@H](S[C@@H]2O[C@H](CO)[C@H](O)[C@H](n3cc(-c4ncc[nH]4)nn3)[C@H]2O)[C@H](O)[C@@H](n2cc(-c3ncc[nH]3)nn2)[C@H]1O
Kd / nM: 25
//
STRUCTURE_AS_SMILES: OC[C@H]1O[C@@H](S[C@@H]2O[C@H](CO)[C@H](O)[C@H](n3cc(-c4nccs4)nn3)[C@H]2O)[C@H](O)[C@@H](n2cc(-c3ccsc3)nn2)[C@H]1O
Kd / nM: 12
//
STRUCTURE_AS_SMILES: OC[C@H]1O[C@@H](S[C@@H]2O[C@H](CO)[C@H](O)[C@H](n3cc(-c4ccsc4)nn3)[C@H]2O)[C@H](O)[C@@H](n2cc(-c3ccsc3)nn2)[C@H]1O
Kd / nM: 6.1
//
STRUCTURE_AS_SMILES: OC[C@H]1O[C@@H](S[C@@H]2O[C@H](CO)[C@H](O)[C@H](n3cc(-c4nccs4)nn3)[C@H]2O)[C@H](O)[C@@H](n2cc(-c3nccs3)nn2)[C@H]1O
Kd / nM: 8.4

INPUT: Find the measured Kd: item "OC[C@H]1O[C@@H](S[C@@H]2O[C@H](CO)[C@H](O)[C@H](n3cc(-c4nccs4)nn3)[C@H]2O)[C@H](O)[C@@H](n2cc(-c3ccc(F)c(F)c3)nn2)[C@H]1O" , target or system Human galectin-1 (Homo sapiens).
OUTPUT: 13

###

TARGET_UNDER_TEST: Human galectin-1 (Homo sapiens, UniProt P09382)
Sequence (P09382 whole entry): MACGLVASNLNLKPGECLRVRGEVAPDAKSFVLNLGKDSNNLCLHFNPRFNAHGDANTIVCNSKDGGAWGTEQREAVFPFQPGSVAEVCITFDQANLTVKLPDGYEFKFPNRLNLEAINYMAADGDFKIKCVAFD
PROTOCOL_SUMMARY: Competitive fluorescence polarization, galectin-1 (performed as described in ref 13)
PARAMETER_MEASURED: Kd
Kindly report the value followed by its unit.

Worked examples follow.
STRUCTURE_AS_SMILES: O=C(O)CS[C@@H]1O[C@H](CO)[C@H](O)[C@H](n2cc(-c3cscn3)nn2)[C@H]1O
REPORTED_VALUE: 62 µM

STRUCTURE_AS_SMILES: O=C(O)CS[C@@H]1O[C@H](CO)[C@H](O)[C@H](n2cc(-c3cncs3)nn2)[C@H]1O
REPORTED_VALUE: 180 µM

STRUCTURE_AS_SMILES: Cc1ccc(S[C@@H]2O[C@H](CO)[C@H](O)[C@H](n3cc(-c4c[nH]cn4)nn3)[C@H]2O)cc1
REPORTED_VALUE: 140 µM

STRUCTURE_AS_SMILES: Cc1ccc(S[C@@H]2O[C@H](CO)[C@H](O)[C@H](n3cc(-c4ncc[nH]4)nn3)[C@H]2O)cc1
REPORTED_VALUE: 47 µM

STRUCTURE_AS_SMILES: O=C(O)CS[C@@H]1O[C@H](CO)[C@H](O)[C@H](n2cc(-c3nccs3)nn2)[C@H]1O
REPORTED_VALUE: 43 µM

INPUT: Find the measured Kd: item "O=C(O)CS[C@@H]1O[C@H](CO)[C@H](O)[C@H](n2cc(-c3ccsc3)nn2)[C@H]1O" , target or system Human galectin-1 (Homo sapiens, UniProt P09382).
OUTPUT: 58 µM

INPUT: Find the measured Kd: item "Cc1ccc(S[C@@H]2O[C@H](CO)[C@H](O)[C@H](n3cc(-c4ccsc4)nn3)[C@H]2O)cc1" , target or system Human galectin-1 (Homo sapiens, UniProt P09382).
OUTPUT: 47 µM
